# SYSTEM NAME: serotonin transporter (SERT) (Rattus norvegicus, UniProt P31652)
# Construct: Freshly removed whole brain minus cerebellum and caudate was homogenized; from tissue; host or cells: rat whole brain minus cerebellum and caudate, synaptosomes
# Sequence (P31652 whole entry): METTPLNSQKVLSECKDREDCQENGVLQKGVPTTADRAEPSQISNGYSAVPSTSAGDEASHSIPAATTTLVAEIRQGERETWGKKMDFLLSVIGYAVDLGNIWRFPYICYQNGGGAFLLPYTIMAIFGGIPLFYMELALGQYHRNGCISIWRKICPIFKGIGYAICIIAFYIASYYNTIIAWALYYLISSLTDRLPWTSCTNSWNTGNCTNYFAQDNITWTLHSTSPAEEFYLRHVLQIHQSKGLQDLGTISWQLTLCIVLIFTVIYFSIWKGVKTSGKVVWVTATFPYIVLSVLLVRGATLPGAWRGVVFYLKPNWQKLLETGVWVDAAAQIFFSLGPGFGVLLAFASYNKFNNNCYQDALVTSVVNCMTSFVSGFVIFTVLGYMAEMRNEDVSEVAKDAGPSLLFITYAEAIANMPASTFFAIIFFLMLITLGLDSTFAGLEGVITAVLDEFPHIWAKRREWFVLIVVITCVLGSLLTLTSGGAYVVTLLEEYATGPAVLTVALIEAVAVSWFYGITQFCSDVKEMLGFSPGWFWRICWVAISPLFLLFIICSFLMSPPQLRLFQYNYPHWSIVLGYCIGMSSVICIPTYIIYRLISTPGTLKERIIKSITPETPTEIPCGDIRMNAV
# PROTOCOL DESCRIPTION: Serotonin reuptake ([^3H]serotonin uptake) inhibition in rat brain synaptosomes
# Format: biochemical
# TEST PARAMETERS: mean ± S.D., n = 3; read-out: SERT Uptake Emax
METRIC: Emax (%)
Give bare numbers, in %.

Below, 2 compounds whose answers are already recorded.
COMPOUND: c1ccc(C(CNc2nc(-c3ccc4ncnn4c3)nc3ccccc23)c2ccccc2)cc1
SYSTEM NAME: serotonin transporter (SERT) (Rattus norvegicus, UniProt P31652)
METRIC: Emax
MEASURE UNIT: %
REPORTED: 35
--
COMPOUND: c1ccc(C(CNc2nc(-c3cnc4nccn4c3)nc3ccccc23)c2ccncc2)cc1 (stereo not drawn)
SYSTEM NAME: serotonin transporter (SERT) (Rattus norvegicus, UniProt P31652)
METRIC: Emax
MEASURE UNIT: %
REPORTED: 51

### Prompt Find the recorded Emax belonging to c1ccc(C(CNc2nc(-c3cnc4nccn4c3)nc3ccccc23)c2ccccn2)cc1 (stereo not drawn) and report it.
### Response 54

====

Consider the following compounds; for each one, report its IC50.
# SYSTEM NAME: dopamine transporter (DAT) (Rattus norvegicus)
# Sequence (P23977 whole entry): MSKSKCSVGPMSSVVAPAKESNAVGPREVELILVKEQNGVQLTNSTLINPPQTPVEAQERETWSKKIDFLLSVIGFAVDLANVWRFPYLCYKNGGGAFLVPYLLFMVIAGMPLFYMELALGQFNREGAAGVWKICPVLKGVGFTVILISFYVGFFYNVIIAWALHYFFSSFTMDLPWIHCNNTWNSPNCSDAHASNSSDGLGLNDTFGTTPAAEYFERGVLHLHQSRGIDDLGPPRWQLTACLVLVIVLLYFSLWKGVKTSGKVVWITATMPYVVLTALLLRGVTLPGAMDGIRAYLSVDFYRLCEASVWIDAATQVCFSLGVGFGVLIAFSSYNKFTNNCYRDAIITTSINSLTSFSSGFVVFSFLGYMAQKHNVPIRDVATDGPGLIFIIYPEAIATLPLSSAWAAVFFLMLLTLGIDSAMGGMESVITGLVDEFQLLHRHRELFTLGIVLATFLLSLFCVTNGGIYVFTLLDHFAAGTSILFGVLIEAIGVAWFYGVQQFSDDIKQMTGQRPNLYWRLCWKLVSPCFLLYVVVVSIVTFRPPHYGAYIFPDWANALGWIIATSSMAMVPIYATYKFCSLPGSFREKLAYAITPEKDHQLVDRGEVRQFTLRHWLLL
# PROTOCOL DESCRIPTION: Dopamine reuptake ([^3H]dopamine uptake) inhibition in rat brain synaptosomes
# TEST PARAMETERS: One-Site IC50 (nM), [^3H]DA uptake dose-response curve fit to one-component equation
Answers are plain numbers, in nM.

Below, 2 compounds whose answers are already recorded.
COMPOUND: c1ccc(C(CNc2nc(-c3ccc4c(c3)CCN4)nc3ccccc23)c2ccccc2)cc1
IC50 (nM): 18
--
COMPOUND: CN(C)c1ccc(-c2nc(NCC(c3ccccc3)N3CCOCC3)c3ccccc3n2)cc1 (stereo not drawn)
IC50 (nM): 15

Consider now this further compound.
### Prompt Find the recorded IC50 belonging to `CN(C)c1ccc(-c2nc(NCCc3ccccc3)c3ccccc3n2)cc1` and report it.
### Response 156

====

Consider the following compounds; for each one, report its melting point.

Each of the following entries comes with a recorded value; kindly state melting point for each.
1. Cn1ccc2cc(-c3nc(NCC(c4ccccc4)c4ccccc4)c4ccccc4n3)ccc21 [compound 77]
2. c1ccc(C(CNc2nc(-c3cn[nH]c3)nc3ccccc23)c2ccccc2)cc1 [compound 75]
3. O=C(Nc1nc(-c2ccc3nccn3c2)nc2ccccc12)C(c1ccccc1)c1ccccc1 [compound 144]
4. c1ccc(CNc2ncc(-c3nc(NCC(c4ccccc4)c4ccccc4)c4ccccc4n3)cn2)cc1 [compound 46]
5. CN(C)Cc1cnc2ccc(-c3nc(NCC(c4ccccc4)c4ccccc4)c4ccccc4n3)cn12 [compound 112]
6. CC(C)(C)OC(=O)n1cc(-c2nc(NCC(c3ccccc3)c3ccccc3)c3ccccc3n2)c2ccccc21 [compound 72]
7. c1ccc(C(CNc2nc(-c3ccc4[nH]ccc4c3)nc3ccccc23)c2cccc(-c3ccc4[nH]ccc4c3)n2)cc1 (centres unmarked) [compound 58]

### Response
1. 222 °C
2. 233 °C
3. 218 to 220 °C
4. 184 °C
5. 240 °C
6. 90 °C
7. 151 °C

### Prompt Find the recorded melting point belonging to Cc1cc2nccn2cc1-c1nc(NCC(C)c2ccccc2)c2ccccc2n1 (centres unmarked) [compound 184] and report it.
### Response 208 to 212 °C
